TARGET OR SYSTEM: A. lwoffii (intact bacteria)
ASSAY PROCEDURE: [3H]adenine competition binding, intact bacteria
CONDITION DESCRIPTION: read-out: binding affinity (IC50); A. lwoffii intact cells
pIC50: −log10 of the molar value.

# COMPOUND, TARGET OR SYSTEM, pIC50
measured = [
    ("Nc1ncnc2nc[nH]c12 [Adenine]", "A. lwoffii (intact bacteria)", 6.52),
]

* * *

System: A. lwoffii membrane preparations
ASSAY PROCEDURE: [3H]adenine homologous competition, bacterial membrane preparations
Assay type: binding, Acinetobacter lwoffii
CONDITION DESCRIPTION: contaminant 3 membrane preparation, versus 10 nM [3H]adenine, n = 1
pIC50: −log10 of the molar value.
MEASUREMENT LABEL: pIC50

# ENTRY SMILES, OBS VALUE
rows = [
    ("Nc1ncnc2nc[nH]c12", 5.63),
]

* * *

TARGET OR SYSTEM: Achromobacter xylosoxidans (intact bacteria)
ASSAY PROCEDURE: [3H]adenine competition binding, intact bacteria
CONDITION DESCRIPTION: estimated from homologous competition, intact bacteria, n = 8
pKd: −log10 of the molar value.

# COMPOUND, TARGET OR SYSTEM, pKd
rows = [
    ("Nc1ncnc2nc[nH]c12 [Adenine]", "Achromobacter xylosoxidans (intact bacteria)", 7.96),
]

// provenance: paper PMC2072912
